Biological target: T1, Mouse Id2: Histidine (mouse, UniProt P41136 1-134, limits assumed)
T1 construct: Fusion protein made in E. coli from vector pGW07; also called m-Id2: His; not shown: His tag
T1 sequence (looked up): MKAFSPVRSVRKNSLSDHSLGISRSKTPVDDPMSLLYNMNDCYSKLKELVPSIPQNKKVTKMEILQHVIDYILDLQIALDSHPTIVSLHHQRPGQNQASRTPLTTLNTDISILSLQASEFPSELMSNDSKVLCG
Experiment: ELISA, Ab 0.100 µg/ml
# A450 per entry
Lab book: enter the figure in A450, no units written.

Use these answered entries as a reference point.
rabbit monoclonal anti-mouse/human Id3, clone #BCH-4/#17-3 (antibody, V domains shown, Rabbit IgG from a rabbit hybridoma; also called m/h Id3 MoAb 17-3; BCH-3/#17-3) VH: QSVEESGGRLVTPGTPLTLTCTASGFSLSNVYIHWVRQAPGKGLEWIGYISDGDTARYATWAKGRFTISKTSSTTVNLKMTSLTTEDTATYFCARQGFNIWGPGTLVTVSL VL: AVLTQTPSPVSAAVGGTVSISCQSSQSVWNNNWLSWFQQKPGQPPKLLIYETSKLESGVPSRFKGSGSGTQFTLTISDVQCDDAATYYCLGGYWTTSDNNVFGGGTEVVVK    0.057
rabbit monoclonal anti-human Id3, clone #BCH-4/#3-3 (antibody, V domains shown, Rabbit IgG from a rabbit hybridoma; also called h Id3 MoAb 3-3) VH: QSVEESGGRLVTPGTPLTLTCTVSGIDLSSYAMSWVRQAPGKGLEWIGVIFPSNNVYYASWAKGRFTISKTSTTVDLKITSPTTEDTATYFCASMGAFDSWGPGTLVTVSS VL: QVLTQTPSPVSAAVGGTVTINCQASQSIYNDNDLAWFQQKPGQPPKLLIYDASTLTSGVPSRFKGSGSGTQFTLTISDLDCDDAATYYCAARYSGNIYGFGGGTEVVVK    0.05

Now take the following binder into account.
## Task For rabbit monoclonal anti-mouse/human Id3, clone #BCH-4/#6-1 (antibody, V domains shown, Rabbit IgG from a rabbit hybridoma; also called m/h Id3 MoAb 6-1) VH: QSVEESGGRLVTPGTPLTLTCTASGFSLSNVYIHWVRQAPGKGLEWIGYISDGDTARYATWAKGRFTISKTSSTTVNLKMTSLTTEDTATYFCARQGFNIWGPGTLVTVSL VL: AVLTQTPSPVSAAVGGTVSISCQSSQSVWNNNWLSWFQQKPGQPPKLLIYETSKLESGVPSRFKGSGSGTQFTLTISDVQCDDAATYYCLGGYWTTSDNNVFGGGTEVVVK , what is its reported A450?
## Result 0.055
